Test: Quantitative High-Throughput drug screen in 47 multiple myeloma cell lines against the NCATS MIPE library collection: OCIMY1_PLB cell viability assay (AID 1918979); further: nearly all actives have a fitted effect of over 35% in size
Details: OCI-MY1 myeloma viability, CellTiter-Glo ATP, 48 h; series mostly up to 45.8 µM
Description: PI: Beverly A. Mock Ph.D. Laboratory of Cancer Biology and Genetics, Center for Cancer Research, National Cancer Institute, National Institute of Health, Bethesda, Maryland […] 5; Detector; 425V; Luminescence; Viewlux PerkinElmer. […] 1. […] Briefly, the corresponding myeloma cell lines were screened in 1,536-well plates with 500 cells, 5-uL per well for inhibition of cell viability (assessed by measuring ATP levels with CellTiterGlo). […]
Inconclusive results are not listed. Activity calls are given as the source filed them. The call rests on the fitted dose curve; in most records, active means well fitted cell-killing curve with a large enough effect; inconclusive means small, poorly fitted or top-dose-only effect, or effect the other way; inactive means no such curve, though single readings can be large or run the other way.
Allowed answers: active, inactive

Would you please look over these solved cases?
Query: Dear colleague, could you share the recorded outcome for O=C(NCCO[N+](=O)[O-])c1cccnc1 when you have a moment?
Reply: inactive

Query: Dear colleague, could you share the recorded outcome for CC1(C)C(=O)N(CCN2CCC(C(=O)c3ccc(F)cc3)CC2)c2ccccc21 when you have a moment?
Reply: active

Query: Dear colleague, could you share the recorded outcome for C[C@H](Cc1ccc(O)c(O)c1)[C@@H](C)Cc1ccc(O)c(O)c1 when you have a moment?
Reply: active

Query: Dear colleague, could you share the recorded outcome for N=C(N=C(N)N)N1CCOCC1 when you have a moment?
Reply: inactive

Query: Dear colleague, could you share the recorded outcome for CCOc1cc(CC(=O)N[C@@H](CC(C)C)c2ccccc2N2CCCCC2)ccc1C(=O)O when you have a moment?
Reply: inactive

Read the next record carefully.
Query: Dear colleague, could you share the recorded outcome for CC(C)C[C@H](NC(=O)[C@H](Cc1ccccc1)NC(=O)c1cnccn1)B(O)O when you have a moment?
Reply: active
